Just for reference, PubChem BioAssay (NCI) is where these values come from.

# System: IGROV1 ovarian
# protocol.summary: NCI tumour cell line growth inhibition, 48 h
measured.property: TGI

Sample records with TGI:
                                   molecule  observed_measurement
0  CC(=O)[CH-]C(=O)c1ccccc1.CC(=O)[CH-]C(=O)c1ccccc1.Cl.[O-]CCc1ccccn1.[O-]CCc1ccccn1.[Ti+4]               75.3 µM
1  O=C(NCC(O)COc1ccccc1)c1ccccc1O (configuration not stated)              > 100 µM
2  CC1(C)OCC(/C=C\C(O)CC2(C)OCCO2)CO1 (configuration not stated)              > 100 µM

// query Item CCOC(=O)C1=C(C)N(NC(=O)Nc2ccccc2)C2(N)N(NC(=O)Nc3ccccc3)C(C)=C(C(=O)OCC)C12C#N (configuration not stated) with IGROV1 ovarian - TGI?
// result 36.6 µM

// query Notebook entry, IGROV1 ovarian assay: TGI of CNC(=O)c1sc(-n2cnc3cc(OC)c(OC)cc32)cc1OCc1ccccc1C(F)(F)F = ?
// result > 25 µM

// query Write down the reported TGI of COC(=O)c1sc2c(c1C(=O)OC)C(=Nc1ccc(OC)cc1)SC2=Nc1ccc(OC)cc1 , test system: IGROV1 ovarian.
// result 2.24 µM

----------
Entries and their TGI values follow.
# Tested on: UACC-257 melanoma
# protocol.summary: NCI tumour cell line growth inhibition, 48 h

Here's what some known entries look like.
molecule	TGI
O=S(c1ccc(O)cc1)c1ccc(O)cc1	> 100 µM
CCCCCCCC(=O)NC(C)(C)C(=O)NCC(=O)NC(CC(C)C)C(=O)NC(C)(C)C(=O)NCC(=O)NCC(=O)NC(CC(C)C)C(=O)NC(C)(C)C(=O)NCC(=O)NC(C(=O)NC(CO)CC(C)C)C(C)CC (stereo not given)	7.96 µM
COc1cccc(/C=C\C(=O)c2ccccc2)c1	33.3 µM
O=C(c1ccccc1)c1nn(-c2cccc(Cl)c2)c2nc3nc(-c4ccccc4)cc(=O)n3nc12	> 25 µM
CC[C@H](C)[C@H](NC(=O)CN(C)C)C(=O)N(C)[C@H](C[C@@H](OC(C)=O)c1nc(C(=O)NC23C4C5C2C2C3C4C52C(=O)OC)cs1)C(C)C (stereo not given in full)	> 33.2 µM

// query I have this molecule here, COc1ccc2c(c1O)[C@@]13CCCC=C1[C@@H](C2)N(C)CC3 , and I need its recorded TGI.
// result > 100 µM

// query Find the recorded TGI belonging to Cc1cnc(C(=O)Nc2nc3ccc(S(=O)(=O)Nc4ccc(C(C)(C)C)cc4)cc3[nH]2)cn1 and report it.
// result 22.7 µM

// query Consider the molecule COC1=CC(=O)[C@@]2(C)C(C)[C@H](c3ccccc3)[C@H]2C1=O (stereo not given in full) and give its measured TGI.
// result > 100 µM

// query Could you share which TGI value was measured for Oc1ccccc1/C=N\NC(=S)Nc1ccc(F)cc1 ?
// result > 65.3 µM

// query Requested field: TGI. Item: COc1cc(F)c(F)c(Nc2ccc(I)cc2F)c1NS(=O)(=O)C1(CC(O)CO)CC1 (stereo not given)
// result 19.5 µM

----------
# System: M19-MEL melanoma
# protocol.summary: NCI tumour cell line growth inhibition, 48 h
In this section we review reported TGI values for a set of compounds.

// query Can you look up the measured TGI of Nc1nc(N)c(CCCCc2ccc([N+](=O)[O-])cc2)c(N)n1 for me?
// result > 100 µM

// query Recorded TGI of CNC(=O)OC1/C(C)=C\C(C)C(O)C(OC)CC(C)CC2=C(OC)C(=O)C=C(C2=O)N(C)C(=O)/C(C)=C/C=C\C1OC (configuration not stated) , please.
// result 14.7 µM

// query For the compound shown here, N#Cc1c(N)oc2cc3c(C#N)c(N)oc3cc12 , give the reported TGI.
// result > 100 µM

----------
# Test system: SF-295 CNS
# protocol.summary: NCI tumour cell line growth inhibition, 48 h; in the data active = GI50 below about 0.43 µM; inactive = the rest
Select the matching outcome among active, inactive

Examples from the recorded data:
molecule	assigned.category
CC[C@H](C)[C@H](NC(=O)CN(C)C)C(=O)N(C)[C@H](C[C@@H](OC(C)=O)c1nc(C(=O)NC23C4C5C2C2C3C4C52C(=O)OC)cs1)C(C)C (stereo not given in full)	inactive
CC(=O)[CH-]C(=O)c1ccccc1.CC(=O)[CH-]C(=O)c1ccccc1.Cl.[O-]CCc1ccccn1.[O-]CCc1ccccn1.[Ti+4]	inactive
O=C(/C=C/c1ccco1)Nc1ncc(Cc2cc(Cl)ccc2Cl)s1	active
CSc1ccc(-c2cn3ccsc3n2)cc1	inactive

// query Dear colleague, could you share the recorded outcome for C=C1C(C)C2C(Cc3ccccc3)NC(=O)C23C(OC(C)=O)C=CC(C)(O)C(=O)C(C)C/C=C/C3C1O (stereo not given) when you have a moment?
// result active

// query Please let me know the test result on file for O=C(O)CCCCCNCc1cc2cc3c(cc2c2cc(OCc4ccccc4)ccc12)OCO3 .
// result inactive

// query For COc1cccc(/C=C\C(=O)c2ccccc2)c1 , which call appears in the assay record?
// result inactive

// query What call does the record list for O=C(NOCCO)c1ccc2cncn2c1Nc1ccc(I)cc1F ?
// result inactive

// query Test call, this molecule: COC(=O)c1sc(-n2cnc3cc(OC)c(OC)cc32)cc1OCc1ccccc1C(F)(F)F
// result inactive

// query Hi, sorry to bother you, what did the test record for CC(C)(C)n1cc(-c2ccnc(NCCCNS(=O)(=O)c3cccc4ccccc34)c2)c(-c2cccc(O)c2)n1 ?
// result inactive

----------
Recorded GI50 for the following compounds
# Test system: ACHN renal
# protocol.summary: NCI tumour cell line growth inhibition, 48 h

compound	GI50
CCc1ccc([OH2+])c(C(=O)[O-])c1.CCc1ccc([OH2+])c(C(=O)[O-])c1.CCc1ccc([OH2+])c(C(=O)[O-])c1.CCc1ccc([OH2+])c(C(=O)[O-])c1.[Cu+2].[Cu+2]	> 100 µM

// query Record C=C1C(C)C2C(Cc3ccccc3)NC(=O)C23C(OC(C)=O)C=CC(C)(O)C(=O)C(C)C/C=C/C3C1O (stereo not given) : what is its GI50 with ACHN renal?
// result 1.28 µM

// query Lab note: need GI50 with ACHN renal for entry C=CC[PH+](c1ccccc1)c1ccccc1.C=CC[PH+](c1ccccc1)c1ccccc1.[Pt+2].[S-]c1nc2ccccc2[nH]1.[S-]c1nc2ccccc2[nH]1 , please look it up.
// result 3.89 µM

// query Record COc1cc(F)c(F)c(Nc2ccc(I)cc2F)c1NS(=O)(=O)C1(CC(O)CO)CC1 (stereo not given) : what is its GI50 with ACHN renal?
// result 17 µM

// query Notebook: pull reported GI50 for ACHN renal, entry CC(C)(C)n1cc(-c2ccnc(NCCCNS(=O)(=O)c3cccc4ccccc34)c2)c(-c2cccc(O)c2)n1
// result 2.7 µM

----------
# Test system: KM12 colon
# protocol.summary: NCI tumour cell line growth inhibition, 48 h
Listed compounds paired with reported TGI
Only the number, expressed in µM, is required.

Recorded results for 3 compounds are shown here.
compound	TGI (µM)
CO[C@H]1C[C@H](O[C@H]2CC[C@@]3(C)[C@H](CC[C@@H]4[C@@H]3CC[C@]3(C)[C@@H](C5=CC(=O)OC5)CC[C@]43O)C2)O[C@H](C)[C@H]1O	0.371
C=CCCCCCCCCCOC1C=CC(O)C(CO)O1 (centres undefined)	85.1
N#Cc1cnn(C(=O)c2nn(-c3ccc(Cl)cc3)cc2O)c1N	22.2

// query Quick check: TGI of NP1(Oc2ccc(F)cc2)=NP(N)(Oc2ccc(F)cc2)=NP(Oc2ccc(F)cc2)(Oc2ccc(F)cc2)=N1 (centres undefined) ?
// result 16.2

// query Given the compound NS(=O)(=O)c1ccc(Nc2c3ccccc3nc3c(C(=O)NC(CO)(CO)CO)cccc23)cc1 , what is its reported TGI?
// result 0.309

// query Entry under review: CC(C)C1OC(=O)C(Cc2ccccc2)N(C)C(=O)C(C(C)C)OC(=O)C(Cc2ccccc2)N(C)C(=O)C(C(C)C)OC(=O)C(Cc2ccccc2)N(C)C1=O (centres undefined) . Reported TGI?
// result 1.33

----------
# System: NCI-H522 lung
# protocol.summary: NCI tumour cell line growth inhibition, 48 h
# maps each entry to its TGI
The response must be a number in µM with no trailing unit.

In [3]: df
Out[3]:
                            structure            tgt  observed_measurement
0  Cc1ccc(-c2ccc3c(c2)Sc2ccccc2O3)n1C  NCI-H522 lung                 0.373

Lab note: next compound to report on.
// query I am curious: what TGI value has been reported for Cc1cccc(NC(=S)NNC(=O)c2cc(-c3ccccc3)nc3ccccc23)c1 ?
// result 85.8
